Data origin: patent US5110800A

# Tested on: Escherichia coli EC14
# TEST METHOD NOTES: MIC, standard agar-dilution assay
# Format: cell-based
# EXPERIMENTAL CONTEXT: Escherichia coli, EC14, read-out: minimal inhibitory concentration (MIC)
A collection of compounds and their measured MIC
The reply should be a number in µg/mL, with the unit left off.

{"columns": ["SUBSTANCE SMILES", "UNIT LABEL", "MIC"],
 "data": [
  ["CC[C@H]1OC(=O)[C@H](C)[C@@H](O[C@H]2C[C@@](C)(OC)[C@@H](O)[C@H](C)O2)[C@H](C)[C@@H](O[C@@H]2O[C@H](C)C[C@H](N(C)C)[C@H]2O)[C@](C)(O)C[C@@H](C)[C@H](NCCOC)[C@H](C)[C@@H](O)[C@]1(C)O", "µg/mL", 16]
]}

Query block: Query MIC for `CCCCC/C=C/CCCN[C@@H]1[C@H](C)[C@@H](O)[C@](C)(O)[C@@H](CC)OC(=O)[C@H](C)[C@@H](O[C@H]2C[C@@](C)(OC)[C@@H](O)[C@H](C)O2)[C@H](C)[C@@H](O[C@@H]2O[C@H](C)C[C@H](N(C)C)[C@H]2O)[C@](C)(O)C[C@H]1C`
Result block: 128

###

# Tested on: Streptococcus sp. group D 2041
# TEST METHOD NOTES: MIC, standard agar-dilution assay
# Type: cell-based
# EXPERIMENTAL CONTEXT: Streptococcus, read-out: minimal inhibitory concentration (MIC)
This section presents compounds with their documented MIC values.
Use µg/mL as the unit, but write only the number.

Take a look at these entries with their results.
{"columns": ["COMPOUND", "METRIC", "OBSERVED"],
 "data": [
  ["CCOC(=O)C1CC1CN[C@@H]1[C@H](C)[C@@H](O)[C@](C)(O)[C@@H](CC)OC(=O)[C@H](C)[C@@H](O[C@H]2C[C@@](C)(OC)[C@@H](O)[C@H](C)O2)[C@H](C)[C@@H](O[C@@H]2O[C@H](C)C[C@H](N(C)C)[C@H]2O)[C@](C)(O)C[C@H]1C (some centres unmarked) [Compound 27]", "MIC", 2],
  ["CCCCCCCCCCN[C@@H]1[C@H](C)[C@@H](O)[C@](C)(O)[C@@H](CC)OC(=O)[C@H](C)[C@@H](O[C@H]2C[C@@](C)(OC)[C@@H](O)[C@H](C)O2)[C@H](C)[C@@H](O[C@@H]2O[C@H](C)C[C@H](N(C)C)[C@H]2O)[C@](C)(O)C[C@H]1C [Compound 9, 9-Deoxo-9-(n-decylamino)erythromycin]", "MIC", 2]
]}

Query block: // Input: CC[C@H]1OC(=O)[C@H](C)[C@@H](O[C@H]2C[C@@](C)(OC)[C@@H](O)[C@H](C)O2)[C@H](C)[C@@H](O[C@@H]2O[C@H](C)C[C@H](N(C)C)[C@H]2O)[C@](C)(O)C[C@@H](C)[C@H](NCC#Cc2ccccc2)[C@H](C)[C@@H](O)[C@]1(C)O [Compound 18] . Output its MIC only.
Result block: 1

Query block: Output MIC of CC[C@H]1OC(=O)[C@H](C)[C@@H](O[C@H]2C[C@@](C)(OC)[C@@H](O)[C@H](C)O2)[C@H](C)[C@@H](O[C@@H]2O[C@H](C)C[C@H](N(C)C)[C@H]2O)[C@](C)(O)C[C@@H](C)[C@H]2[C@H](C)[C@@H](OCN2C2CCCC2)[C@]1(C)O [Compound 60]
Result block: 8

###

# Test system: Streptococcus sp. group D 2041
# TEST METHOD NOTES: MIC, standard agar-dilution assay
# Assay type: cell-based
# EXPERIMENTAL CONTEXT: Streptococcus, read-out: minimal inhibitory concentration (MIC)
Listing of recorded MIC by entry.
Respond with the bare value in µg/mL.

Reference set (3 entries):
{"columns": ["SUBSTANCE SMILES", "METRIC", "OBSERVED"],
 "data": [
  ["CC[C@H]1OC(=O)[C@H](C)[C@@H](O[C@H]2C[C@@](C)(OC)[C@@H](O)[C@H](C)O2)[C@H](C)[C@@H](O[C@@H]2O[C@H](C)C[C@H](N(C)C)[C@H]2O)[C@](C)(O)C[C@@H](C)[C@H](NCCCOC)[C@H](C)[C@@H](O)[C@]1(C)O", "MIC", 8],
  ["CC[C@H]1OC(=O)[C@H](C)[C@@H](O[C@H]2C[C@@](C)(OC)[C@@H](O)[C@H](C)O2)[C@H](C)[C@@H](O[C@@H]2O[C@H](C)C[C@H](N(C)C)[C@H]2O)[C@](C)(O)C[C@@H](C)[C@H](N(C)C2CCCCC2)[C@H](C)[C@@H](O)[C@]1(C)O", "MIC", 128],
  ["CC[C@H]1OC(=O)[C@H](C)[C@@H](O[C@H]2C[C@@](C)(OC)[C@@H](O)[C@H](C)O2)[C@H](C)[C@@H](O[C@@H]2O[C@H](C)C[C@H](N(C)C)[C@H]2O)[C@](C)(O)C[C@@H](C)[C@H](NCCCc2ccccc2)[C@H](C)[C@@H](O)[C@]1(C)O", "MIC", 2]
]}

Then this compound:
Query block: Please supply the value of reported MIC for the item `CCCCC/C=C/CCCN[C@@H]1[C@H](C)[C@@H](O)[C@](C)(O)[C@@H](CC)OC(=O)[C@H](C)[C@@H](O[C@H]2C[C@@](C)(OC)[C@@H](O)[C@H](C)O2)[C@H](C)[C@@H](O[C@@H]2O[C@H](C)C[C@H](N(C)C)[C@H]2O)[C@](C)(O)C[C@H]1C`
Result block: 2

###

# Test system: Streptococcus sp. group D 2041
# TEST METHOD NOTES: MIC, standard agar-dilution assay
# Format: cell-based
# EXPERIMENTAL CONTEXT: Streptococcus, read-out: minimal inhibitory concentration (MIC)
Collected MIC values appear next to each entry.
Write the figure, then the unit, nothing else.

{"columns": ["MOLECULE", "MIC"],
 "data": [
  ["CC[C@H]1OC(=O)[C@H](C)[C@@H](O[C@H]2C[C@@](C)(OC)[C@@H](O)[C@H](C)O2)[C@H](C)[C@@H](O[C@@H]2O[C@H](C)C[C@H](N(C)C)[C@H]2O)[C@](C)(O)C[C@@H](C)[C@H](NCCC(C)CCCC(C)(C)OC)[C@H](C)[C@@H](O)[C@]1(C)O (some centres unmarked)", "2 µg/mL"]
]}

Next, consider the following molecule.
Query block: Look up MIC of `CC[C@H]1OC(=O)[C@H](C)[C@@H](O[C@H]2C[C@@](C)(OC)[C@@H](O)[C@H](C)O2)[C@H](C)[C@@H](O[C@@H]2O[C@H](C)C[C@H](N(C)C)[C@H]2O)[C@](C)(O)C[C@@H](C)[C@H](NCCC2=C(C)CCCC2(C)C)[C@H](C)[C@@H](O)[C@]1(C)O` and report it.
Result block: 2 µg/mL

###

# Tested on: Streptococcus sp. group D X66
# TEST METHOD NOTES: MIC, standard agar-dilution assay
# Format: cell-based
# EXPERIMENTAL CONTEXT: Streptococcus, read-out: minimal inhibitory concentration (MIC)
Recorded MIC by entry
Field: numeric (µg/mL). Do not append units.

Completed entries (count: 2):
{"columns": ["SUBSTANCE SMILES", "OBSERVED"],
 "data": [
  ["CC[C@H]1OC(=O)[C@H](C)[C@@H](O[C@H]2C[C@@](C)(OC)[C@@H](O)[C@H](C)O2)[C@H](C)[C@@H](O[C@@H]2O[C@H](C)C[C@H](N(C)C)[C@H]2O)[C@](C)(O)C[C@@H](C)[C@H](NCCCc2ccccc2)[C@H](C)[C@@H](O)[C@]1(C)O", 0.06],
  ["CC[C@H]1OC(=O)[C@H](C)[C@@H](O[C@H]2C[C@@](C)(OC)[C@@H](O)[C@H](C)O2)[C@H](C)[C@@H](O[C@@H]2O[C@H](C)C[C@H](N(C)C)[C@H]2O)[C@](C)(O)C[C@@H](C)[C@H](NCCCSC)[C@H](C)[C@@H](O)[C@]1(C)O", 0.25]
]}

Query block: Tell me measured MIC for `CCCN1CO[C@@H]2[C@@H](C)[C@@H]1[C@H](C)C[C@@](C)(O)[C@H](O[C@@H]1O[C@H](C)C[C@H](N(C)C)[C@H]1O)[C@@H](C)[C@H](O[C@H]1C[C@@](C)(OC)[C@@H](O)[C@H](C)O1)[C@@H](C)C(=O)O[C@H](CC)[C@@]2(C)O` please.
Result block: 0.125

Query block: Entry `CC[C@H]1OC(=O)[C@H](C)[C@@H](O[C@H]2C[C@@](C)(OC)[C@@H](O)[C@H](C)O2)[C@H](C)[C@@H](O[C@@H]2O[C@H](C)C[C@H](N(C)C)[C@H]2O)[C@](C)(O)C[C@@H](C)[C@H](NC)[C@H](C)[C@@H](O)[C@]1(C)O` needs its MIC filled in; supply it.
Result block: 0.125
